# System: BIKE;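 further: KINOMEscan kinase panel screen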
# Construct: gene BMP2K
# Condition description: concentration: 1 μM, replicates: in singlicate; n = 1
Returns: string. Value is MET if measured %Inh is below 20%, and NOT MET if it is greater than or equal to it.

• COc1ccc(Nc2nccc(-c3cccc(NC(=O)c4cc5cc(F)ccc5[nH]4)c3)n2)cc1 = NOT MET
• Fc1cccc(COc2nnc(-c3ccc4c(c3)CCO4)o2)c1 = MET
• Cc1cccc(-c2nc(-c3ccc(S(C)(=O)=O)cc3)sc2-c2ccnc(NCCc3ccccc3)c2)c1 = MET
• O=C(Nc1n[nH]c2cc(-c3cccc(F)c3F)ccc12)C1CC1 = NOT MET

Please find the next compound below.
QUERY: Bench note: check whether O=c1cc(N2CCOCC2)nc2n(Cc3cccc(Cl)c3Cl)ccn12 shows %Inh below 20%
RESULT: NOT MET

Data provenance: paper PMC5540273
